- system name: KRAS4B WT (Homo sapiens, UniProt P01116)
- Construct: HiBit; expressed in transfected cells; host or cells: GP5d cells (ECACC 95090715), stably transduced with lentivirus, CMV promoter
- Sequence (P01116 1-188 isoform P01116-2): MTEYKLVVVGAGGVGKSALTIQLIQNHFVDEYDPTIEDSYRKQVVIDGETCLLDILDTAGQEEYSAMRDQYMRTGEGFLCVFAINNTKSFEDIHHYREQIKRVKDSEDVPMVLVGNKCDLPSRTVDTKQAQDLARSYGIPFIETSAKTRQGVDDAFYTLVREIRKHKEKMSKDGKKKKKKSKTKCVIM
- experiment notes: HiBit KRAS4B mutant spectrum degradation assay, KRAS4B WT in GP5d cells (18 h)
- Assay type: cell-based
- condition summary: KRAS mutation G12WT
Form field: Dmax at 18 h (one value per entry).
The figure you give is taken to be in % Ctrl.; do not add the unit.

// below: answered molecules
[[record]]
molecule = "Cc1ncsc1-c1ccc([C@@H](NC(=O)[C@@H]2C[C@@H](O)CN2C(=O)[C@H](C(C)C)n2cc(OCCCN3CCCN(c4nccc(-c5noc([C@@]6(C)CCCc7sc(N)c(C#N)c76)n5)n4)[C@@H](C)C3)nn2)[C@H](O)C(C)C)cc1 (single isomer, unassigned)"
assay_result = 98.1

[[record]]
molecule = "Cc1ncsc1-c1ccc([C@H](CO)NC(=O)[C@@H]2C[C@@H](O)CN2C(=O)[C@H](C(C)C)n2cc(OCCCC(C)N3CCCN(c4nccc(-c5noc([C@@]6(C)CCCc7sc(N)c(C#N)c76)n5)n4)[C@@H](C)C3)nn2)cc1 (stereo partly shown)"
assay_result = 97.8

[[record]]
molecule = "Cc1ncsc1-c1ccc([C@H](CO)NC(=O)[C@@H]2C[C@@H](O)CN2C(=O)[C@H](C(C)C)n2cc(OCCCCN3CCCN(c4nccc(-c5noc([C@@]6(C)CCCc7sc(N)c(C#N)c76)n5)n4)[C@@H](C)C3)nn2)cc1"
assay_result = 97.2


Lab book: Dmax at 18 h of Cc1ncsc1-c1ccc(CNC(=O)[C@@H]2C[C@@H](O)CN2C(=O)[C@@H](c2cc(OCCCN3CCCN(c4nccc(-c5noc([C@@]6(C)CCCc7sc(N)c(C#N)c76)n5)n4)[C@@H](C)C3)no2)C(C)C)cc1 (single isomer, unassigned) noted as 96
